Each recorded value in this set is attributed to the supplement of paper PMC10567573.

B1: PLAGL1 (parent)
chain: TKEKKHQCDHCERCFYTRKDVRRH

variants of: B1; assay: protein stability index of a GFP-peptide fusion (GPS, HEK-293T) (PSI 1-6); higher = more stable; details: c terminus: a fixed tail appended;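 further: lentivirally expressed fusions sorted by FACS into six bins by GFP to DsRed ratio, PSI derived from sequencing read proportions per bin multiplied by bin number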
Class t: protein stability index at least 3. Class f: protein stability index below 3.

Solved cases below.
sequence="TKEKKHQCDHCERCFYTRKDVRIH [R23I]" category=t
sequence="TKEKKHQCDHCERCFYTRKLVRRH [D20L]" category=t
sequence="TKEKKHQCDHCERCFYTRKRVRRH [D20R]" category=t
sequence="TKEKCHQCDHCERCFYTRKDVRRH [K5C]" category=f
sequence="TKEKKHQCDICERCFYTRKDVRRH [H10I]" category=f
sequence="TKEKKHQCDHCERCFYTRKDVRYH [R23Y]" category=t

State whether the measured protein stability index reaches 3, counting equality as reaching it, for TKEKKHQRDHCERCFYTRKDVRRH [C8R]
t

And what about the variant TKEKKHQCDHCERCCYTRKDVRRH [F15C] ?
f

And what about the variant TKEKKHQCDHCERCFYTRKNVRRH [D20N] ?
t

And what about the variant TKEKKHQCDHCERCFYTRKDVRRQ [H24Q] ?
t

And what about the variant TKEKKHQCWHCERCFYTRKDVRRH [D9W] ?
f
